tested on: HS 578T breast; test: NCI tumour cell line growth inhibition, 48 h
# TGI values compiled below

>  <substance smiles>
CC(=O)N=C1N(/C=C2\C(=O)Oc3ccccc3C2=O)C(=O)/C(=C/c2ccc(OC(C)=O)cc2)N1C

>  <TGI>
> 100 µM

$$$$
>  <substance smiles>
Cn1cc(C2=C(c3cn(CCCCN)c4ccccc34)C(=O)NC2=O)c2ccccc21

>  <TGI>
> 25 µM

$$$$
>  <substance smiles>
C1CCC2(CC1)O[C@@H]1[C@@H](O2)[C@@H](O[C@H]2O[C@@H]3COC4(CCCCC4)O[C@H]3[C@@H]3OC4(CCCCC4)O[C@@H]23)O[C@@H]2COC3(CCCCC3)O[C@@H]12

>  <TGI>
> 100 µM

$$$$
>  <substance smiles>
CCCNNC(=O)/C=C/c1ccc(CNCCc2c(C)[nH]c3ccccc23)cc1

>  <TGI>
0.621 µM

$$$$

---

test system: SF-539 CNS; test: NCI tumour cell line growth inhibition, 48 h
Listing: TGI of selected compounds
measured endpoint: TGI

>  <compound>
C1CCC2(CC1)O[C@@H]1[C@@H](O2)[C@@H](O[C@H]2O[C@@H]3COC4(CCCCC4)O[C@H]3[C@@H]3OC4(CCCCC4)O[C@@H]23)O[C@@H]2COC3(CCCCC3)O[C@@H]12

>  <observed measurement>
> 100 µM

$$$$
>  <compound>
OCc1ccc(-c2ccc(-c3ccc(CO)o3)[se]2)o1

>  <observed measurement>
> 100 µM

$$$$
>  <compound>
Cc1cc2c(ccc3c(C)cc(=O)oc32)o1

>  <observed measurement>
> 100 µM

$$$$
>  <compound>
COC(=O)[C@]1(c2cc3ccccc3n2S(=O)(=O)c2ccccc2)CC2CN(C(C)=O)C1CC2=O (some centres undefined)

>  <observed measurement>
12.7 µM

$$$$

---

test system: M14 melanoma; assay: NCI tumour cell line growth inhibition, 48 h
measured endpoint: GI50

>  <compound>
O=C(Nc1cccc(-n2ccc3c(NC(=O)c4ccccc4)nccc32)c1)Nc1cc(C(F)(F)F)cc(C(F)(F)F)c1

>  <observed measurement>
1.11 µM

$$$$
>  <compound>
CCc1cccc(C)c1NC(=O)c1sc2nc3c(cc2c1N)CCCCC3

>  <observed measurement>
2.53 µM

$$$$
>  <compound>
Cc1sc2nc(-c3ccncc3)c(/C=N/N=C(N)N)n2c1C

>  <observed measurement>
60.2 µM

$$$$
>  <compound>
COC(=O)c1c2c(c[n+]([O-])c1C)C(=O)C=CC2=O

>  <observed measurement>
1.87 µM

$$$$
>  <compound>
COc1cc(NC(N)=NCCC(C)(C)Oc2ccc(C(F)(F)F)cc2)ncc1C#N

>  <observed measurement>
1.62 µM

$$$$
>  <compound>
Fc1ccc2[nH]cc(-c3nonc3-c3c[nH]c4ccc(Br)cc34)c2c1

>  <observed measurement>
1.87 µM

$$$$
>  <compound>
CC(=O)[O][Ga]([Cl])[O]C(C)=O

>  <observed measurement>
> 100 µM

$$$$
>  <compound>
Cc1ccc(C)c2c1C(O)(C#Cc1ccccc1)c1ccccc1C2(O)C#Cc1ccccc1 (configuration not stated)

>  <observed measurement>
3.6 µM

$$$$
>  <compound>
C=C1C(=O)O[C@H]2[C@H]1CC/C(COC(=O)CSCCSCC(=O)OC/C1=C/CC[C@@]3(C)O[C@H]3[C@H]3OC(=O)C(=C)[C@@H]3CC1)=C\CC[C@@]1(C)O[C@@H]21

>  <observed measurement>
1.99 µM

$$$$
>  <compound>
Cc1nn(-c2nc3ccccc3[nH]2)c(N)c1-c1ccc(Cl)cc1

>  <observed measurement>
6.68 µM

$$$$
>  <compound>
O=C(CO[N+](=O)[O-])Nc1ccc(C(=O)/C=C/c2ccc(Cl)cc2)cc1

>  <observed measurement>
2.05 µM

$$$$
>  <compound>
[Cl][Hg][Cl]

>  <observed measurement>
16.2 µM

$$$$
